# Experiment Notes: 1-octanol-aqueous buffer distribution coefficient, log D of the compound at pH 7.4
# Type: physicochemical
Measurement Type: logD
Answers are plain numbers.

{"columns": ["Cpd Smiles", "logD"],
 "data": [
  ["Cc1ccc2[nH]c(C(=O)N[C@H]3CN(S(=O)(=O)c4ccnc(C)c4)C[C@@H]3C(=O)NCCN(C)C)cc2c1", 1.7],
  ["Cc1ccc2[nH]c(C(=O)N[C@@H]3CCN(S(=O)(=O)c4ccccc4)C[C@H]3C(=O)NCCN(C)C)cc2c1", 2.3]
]}

Which logD is reported for this molecule? Cc1csc(C(=O)N[C@H]2CN(S(=O)(=O)c3ccccc3)C[C@@H]2C(=O)N[C@H]2CCCNC2)n1
0.1

* * *

# Experiment Notes: Apparent permeability across apical to basolateral side in human Caco2 cells at pH 7.4
# Format: ADME, cell-based
# Setup Conditions: Caco-2, pH 7.4
Please go through the items and note down their Papp A→B.
Give bare numbers, in ×10⁻⁶ cm/s.

Below, 3 compounds whose answers are already recorded.
{"columns": ["Cpd Smiles", "Numeric Value"],
 "data": [
  ["Cc1ccc2[nH]c(C(=O)N[C@H]3CCN(S(=O)(=O)c4ccccc4Cl)C[C@@H]3C(=O)N[C@H]3CCCN(C)C3)cc2c1", 0.27],
  ["Cc1ccc2[nH]c(C(=O)N[C@H]3CN(S(=O)(=O)c4ccccc4)C[C@@H]3C(=O)N[C@H]3CCCN(C)C3)cc2c1", 0.3],
  ["Cc1csc(C(=O)N[C@H]2CN(S(=O)(=O)c3ccccc3)C[C@@H]2C(=O)N[C@H]2CCCNC2)n1", 0.18]
]}

Could you now look at the following compound, please?
Which Papp A→B is reported for this compound? Cc1ccc2[nH]c(C(=O)N[C@H]3CN(S(=O)(=O)c4ccccc4)C[C@@H]3C(=O)N[C@@H]3CCCNC3)cc2c1
0.04

* * *

# Experiment Notes: Apparent permeability across apical to basolateral side in human Caco2 cells at pH 7.4
# Assay type: ADME, cell-based
# Setup Conditions: Caco-2, pH 7.4
Measurement Type: Papp A→B

{"columns": ["Cpd Smiles", "Papp A→B"],
 "data": [
  ["Cc1ccc2[nH]c(C(=O)N[C@H]3CN(S(=O)(=O)c4ccccc4)C[C@@H]3C(=O)N[C@H]3CCCNC3)cc2c1", "0.04 ×10⁻⁶ cm/s"],
  ["Cc1ccc2[nH]c(C(=O)N[C@H]3CN(S(=O)(=O)c4ccccc4)C[C@@H]3C(=O)NC[C@H]3CCCN3C)cc2c1", "0.08 ×10⁻⁶ cm/s"],
  ["O=C(N[C@H]1CN(S(=O)(=O)c2ccccc2)C[C@@H]1C(=O)N[C@H]1CCCNC1)c1cc(-c2ccccc2Cl)on1", "0.31 ×10⁻⁶ cm/s"],
  ["Cc1ccc2[nH]c(C(=O)N[C@H]3CN(S(=O)(=O)c4ccccc4)C[C@@H]3C(=O)N[C@@H]3CCCN(C)C3)cc2c1", "0.76 ×10⁻⁶ cm/s"],
  ["Cc1ccc2[nH]c(C(=O)N[C@H]3CN(S(=O)(=O)c4ccccc4)C[C@@H]3C(=O)NC[C@@H]3CCCN3C)cc2c1", "0.24 ×10⁻⁶ cm/s"],
  ["Cc1ccc2[nH]c(C(=O)N[C@H]3CCN(S(=O)(=O)c4ccccc4Cl)C[C@@H]3C(=O)N[C@H]3CCCNC3)cc2c1", "< 0.01 ×10⁻⁶ cm/s"]
]}

Could you now look at the following molecule, please?
Which Papp A→B is reported for this molecule? Cc1ccc2[nH]c(C(=O)N[C@H]3CN(S(=O)(=O)c4ccccc4)C[C@@H]3C(=O)NC[C@H]3CCCN3)cc2c1
0.11 ×10⁻⁶ cm/s
